Test system: Human immunodeficiency virus 1
assay comment: Anti-HIV activity against NNRTI-resistant HIV-1 harboring RT Y181C mutant infected in human MT4 cells assessed as inhibition of virus-induced cytopathic effect incubated for 5 days by MTT assay
Assay type: functional, organism-based
condition details: Human immunodeficiency virus 1, MT4, 120 h
Would you mind telling me the reported log10 EC50 of each entry?
Response schema: value (number) is log10 of EC50 in units of nM.

Solved entries:
COC(=O)C1CCC(NC(=O)C#Cc2cnc(Nc3ccc(C#N)cc3)nc2Oc2c(C)cc(C#N)cc2C)CC1 (stereo not given) = 2.00
Cc1cc(C#N)cc(C)c1Oc1nc(Nc2ccc(C#N)cc2)ncc1C#CC(=O)NC1CC1 = 1.57
Cc1cc(C#N)cc(C)c1Oc1nc(Nc2ccc(C#N)cc2)ncc1SCC(=O)NCCCN1CCOCC1 = 1.49
COCCNC(=O)C#Cc1cnc(Nc2ccc(C#N)cc2)nc1Oc1c(C)cc(C#N)cc1C = 0.98

QUERY: Record C#CCNC(=O)C#Cc1cnc(Nc2ccc(C#N)cc2)nc1Oc1c(C)cc(C#N)cc1C : what is its log10 EC50 with Human immunodeficiency virus 1?
RESULT: 1.94

Source listed as ChEMBL document CHEMBL5331093.
